Every entry's value here was drawn from the supplement of paper PMC10724198.

- Test system: Saccharomyces cerevisiae
- protocol_details: protein stability index of tFT-peptide fusion (C-terminal peptide) (PSI (0-1 scale)); higher = more stable (slower turnover)
- experimental_parameters: genetic background: wild type; temperature: 30 C
Reported protein stability index values are given for each entry in this list.
Answer field: number only, no words.

biosequence | experimental_system | protein stability index
PPLVSPPPPLPP | Saccharomyces cerevisiae | 0.62
KKSLNTKIQTRE | Saccharomyces cerevisiae | 0.707

Query (sequence): PGCGVGSPARAE ; field requested: protein stability index
0.712

Please give the measured protein stability index for this sequence: RASPTTILCKRQ
0.678

---

- Tested on: Saccharomyces cerevisiae
- protocol_details: protein stability index of tFT-peptide fusion in deletion strain of DAS1 (PSI (0-1 scale)); higher = more stable (slower turnover)
measured_parameter: protein stability index
Write no unit; give the number alone.

biosequence | protein stability index
PSNAASFWRVVG | 0.686
PDRRNHLIKLLN | 0.664
VRGAVGGWRLVC | 0.634

Notebook entry, Saccharomyces cerevisiae assay: protein stability index of FPMRWTFRYWVN = ?
0.574

# query: protein stability index | item PDKDNHLIKLLN | system: Saccharomyces cerevisiae
0.568

Request - read-out protein stability index | tested on Saccharomyces cerevisiae | sequence PSLAASFYRVVG
0.689

Form field - read-out: protein stability index; system: Saccharomyces cerevisiae; submitted item: ARWRVGLWRGASY
0.69

Form field: protein stability index recorded for PSLAAEFWRVVG with Saccharomyces cerevisiae (enter value)
0.697

State its protein stability index on Saccharomyces cerevisiae: RLIQPLPVQFLNH
0.661

Kindly state the measured protein stability index obtained for VRGAVGGWRLVGW with Saccharomyces cerevisiae.
0.668

Identify the measured protein stability index of PSLAASFWRVQG for Saccharomyces cerevisiae.
0.672

For the record ARWRVGLWRGAH , what value of protein stability index is listed for Saccharomyces cerevisiae?
0.688

Item: PSLAASFWTVVG Test system: Saccharomyces cerevisiae Read-out: protein stability index Value: ?
0.708

Under Saccharomyces cerevisiae: protein stability index value of CDSCGYKFRTNN ?
0.691

Lab note: need protein stability index with Saccharomyces cerevisiae for entry FSMRWTKRYWVN , please look it up.
0.545

---

- System: Saccharomyces cerevisiae
- protocol_details: protein stability index of tFT-peptide fusion (C-terminal peptide) (PSI (0-1 scale)); higher = more stable (slower turnover)
- experimental_parameters: genetic background: wild type; temperature: 30 C
Catalogue of sequences with associated protein stability index

Would you please look over these solved cases?
biosequence | experimental_system | protein stability index
YFGPSPTRPPVP | Saccharomyces cerevisiae | 0.723
GVGGAGIGVGMG | Saccharomyces cerevisiae | 0.705
TFTSTTLARPFS | Saccharomyces cerevisiae | 0.831
GRVGFGSGAWLR | Saccharomyces cerevisiae | 0.669
LPAPSPAVPSPP | Saccharomyces cerevisiae | 0.668
FLSPPSPWPSFP | Saccharomyces cerevisiae | 0.688
SHPPPTVPPAIP | Saccharomyces cerevisiae | 0.677
KAGKFLVGKSLS | Saccharomyces cerevisiae | 0.657

Given the entry RRVRTTKKGLTI , report its measured protein stability index.
0.727

Fill in the blank: the reported protein stability index of PPPSRSLPPTPP is ____.
0.746

Name the recorded protein stability index for SKPEEAGADLSD .
0.6

Please look up its protein stability index: DRLCAAPHYGTH
0.599
